# target-under-test: CFTR (Homo sapiens)
# Sequence (P13569 with tags, fused parts or gaps DEL508-508): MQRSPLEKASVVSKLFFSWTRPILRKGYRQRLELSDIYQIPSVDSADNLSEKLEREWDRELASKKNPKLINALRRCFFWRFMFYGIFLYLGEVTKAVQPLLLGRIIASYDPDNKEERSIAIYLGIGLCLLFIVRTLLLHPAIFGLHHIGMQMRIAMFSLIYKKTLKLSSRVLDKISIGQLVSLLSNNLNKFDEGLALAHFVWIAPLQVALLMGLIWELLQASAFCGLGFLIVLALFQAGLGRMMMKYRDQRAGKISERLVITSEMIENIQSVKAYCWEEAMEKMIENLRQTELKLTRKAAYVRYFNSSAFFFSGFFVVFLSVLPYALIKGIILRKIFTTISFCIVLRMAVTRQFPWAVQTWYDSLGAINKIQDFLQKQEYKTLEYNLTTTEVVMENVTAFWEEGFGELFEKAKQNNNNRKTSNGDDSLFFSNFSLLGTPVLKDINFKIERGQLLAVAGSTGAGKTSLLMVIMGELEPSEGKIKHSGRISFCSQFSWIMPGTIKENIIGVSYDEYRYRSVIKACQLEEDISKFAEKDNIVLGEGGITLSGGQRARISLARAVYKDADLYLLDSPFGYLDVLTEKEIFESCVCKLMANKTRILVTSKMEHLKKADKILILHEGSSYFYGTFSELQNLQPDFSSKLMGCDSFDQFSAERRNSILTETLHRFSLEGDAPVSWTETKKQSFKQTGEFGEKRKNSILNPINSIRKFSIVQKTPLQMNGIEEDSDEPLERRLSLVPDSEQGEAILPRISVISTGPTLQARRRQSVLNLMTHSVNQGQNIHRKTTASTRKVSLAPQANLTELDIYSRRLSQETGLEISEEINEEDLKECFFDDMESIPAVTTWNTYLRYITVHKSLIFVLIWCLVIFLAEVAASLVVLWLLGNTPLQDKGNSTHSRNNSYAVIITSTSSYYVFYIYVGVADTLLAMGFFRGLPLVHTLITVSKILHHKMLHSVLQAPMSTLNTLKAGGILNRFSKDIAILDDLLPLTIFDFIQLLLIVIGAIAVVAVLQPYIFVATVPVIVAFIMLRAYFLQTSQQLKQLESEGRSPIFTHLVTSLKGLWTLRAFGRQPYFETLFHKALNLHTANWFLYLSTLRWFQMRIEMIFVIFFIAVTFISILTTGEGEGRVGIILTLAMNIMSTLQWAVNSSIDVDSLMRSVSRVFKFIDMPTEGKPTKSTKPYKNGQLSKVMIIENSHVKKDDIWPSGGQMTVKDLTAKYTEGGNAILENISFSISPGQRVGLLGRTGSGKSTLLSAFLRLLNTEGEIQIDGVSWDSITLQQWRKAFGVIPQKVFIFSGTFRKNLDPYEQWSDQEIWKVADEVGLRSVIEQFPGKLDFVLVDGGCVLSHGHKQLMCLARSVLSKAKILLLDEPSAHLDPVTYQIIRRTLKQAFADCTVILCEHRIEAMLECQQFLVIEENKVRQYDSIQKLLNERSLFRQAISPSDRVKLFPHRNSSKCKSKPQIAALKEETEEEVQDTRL
# test-protocol: Membrane Potential Dye, Enteroid Assay A
# Format: cell-based
# stated-conditions: Enteroid Assay A
measured-endpoint: Ent. A Max Activity

Below, each entry is followed by its recorded Ent. A Max Activity result.
Cc1cccc(C)c1-c1cc2nc(n1)NS(=O)(=O)c1cccc(c1)C(=O)NCC1(CCN(C(=O)c3cc4c(cc3O)CCCC4)CC1)CO2 [Compound 462] ... ++ (++ is 30-60%)
Cc1cccc(C)c1-c1cc2nc(n1)NS(=O)(=O)c1cccc(c1)C(=O)NCC(C)(C)CO2 [Compound 202] ... ++ (++ is 30-60%)
Cc1cccc(C)c1-c1cc2nc(n1)NS(=O)(=O)c1cccc(c1)C(=O)N[C@H]1CC[C@H](CC1)O2 [Compound 198] ... +++ (+++ is >600%)
Cc1cccc(C)c1-c1cc2nc(n1)NS(=O)(=O)c1cccc(c1)C(=O)NC1CC(CN(CCC(C)(C)C)C1)O2 (single isomer, unassigned) [Compound 80] ... ++ (++ is 30-60%)
Cc1nc(C(F)(F)F)c(C(=O)N2CCC3(CC2)CNC(=O)c2cccc(c2)S(=O)(=O)Nc2nc(cc(-c4c(C)cccc4C)n2)OC3)s1 [Compound 460] ... ++ (++ is 30-60%)

Data request: Request body: readout Ent. A Max Activity, system CFTR (Homo sapiens), query Cc1cccc(C)c1-c1cc2nc(n1)NS(=O)(=O)c1cccc(c1)C(=O)NC[C@H](Cc1ccccc1)O2 [Compound 346] . Return the value.
Data returned: ++ (++ is 30-60%)

Data request: Please state recorded Ent. A Max Activity (tested on CFTR (Homo sapiens)) of Cc1cccc(C)c1-c1cc2nc(n1)NS(=O)(=O)c1cccc(c1)C(=O)NCC1(CCCCC1)CO2 [Compound 205]
Data returned: +++ (+++ is >600%)

Data request: Param readout = Ent. A Max Activity; param system = CFTR (Homo sapiens); param query = CCOc1ccccc1-c1cc2nc(n1)NS(=O)(=O)c1cccc(c1)C(=O)N[C@H](CC(C)C)CO2 [Compound 328] ; response: value
Data returned: ++ (++ is 30-60%)

Data request: What Ent. A Max Activity appears in the records for this molecule with CFTR (Homo sapiens)? Cc1cccc(C)c1-c1cc2nc(n1)NS(=O)(=O)c1cccc(c1)C(=O)N[C@H](CCC(C)C)CO2 [Compound 46]
Data returned: +++ (+++ is >600%)

Data request: Hi! What's the reported Ent. A Max Activity for Cc1cccc(C)c1-c1cc2nc(n1)NS(=O)(=O)c1cccc(c1)C(=O)NCC1(CCN(CCC(C)(C)C)CC1)CO2 [Compound 443] on CFTR (Homo sapiens)?
Data returned: ++ (++ is 30-60%)

Data request: Notebook entry, CFTR (Homo sapiens) assay: Ent. A Max Activity of Cc1cccc(C)c1-c1cc2nc(n1)NS(=O)(=O)c1cccc(c1)C(=O)NCC1(CCN(C(=O)C(CC(C)C)NC(=O)OC(C)(C)C)CC1)CO2 (stereo not shown) [Compound 450] = ?
Data returned: ++ (++ is 30-60%)

Data request: Form: Entry = Cc1ccc2cc1S(=O)(=O)Nc1nc(cc(-c3c(C)cccc3C)n1)OC[C@@H](CC1CCCCC1)NC2=O [Compound 160] | System = CFTR (Homo sapiens) | Ent. A Max Activity = ____
Data returned: ++ (++ is 30-60%)

Data request: Quick check: Ent. A Max Activity on CFTR (Homo sapiens), item Cc1cccc(C)c1-c1cc2nc(n1)NS(=O)(=O)c1cccc(c1)C(=O)NC1c3ccccc3CC1O2 (stereo not shown) [Compound 489] ?
Data returned: +++ (+++ is >600%)
